B1: glmS ribozyme (parent)
chain: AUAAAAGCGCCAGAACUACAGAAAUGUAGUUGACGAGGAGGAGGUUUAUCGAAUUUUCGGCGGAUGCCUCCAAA

variants of: B1; assay: self-cleavage kobs at 2500 uM GlcN6P; higher = faster cleavage; RNA array; conditions: with glucosamine-6-phosphate
This sample holds only a part of the variants without activity.
value.kind: self-cleavage kobs at 2500 uM GlcN6P (s⁻¹)

INSERT INTO results (variant_annotation, unit_descriptor, qualifier_sign, numeric_result) VALUES
  ('A14C U45G C68U', 's⁻¹', '=', '3.4e-05'),
  ('U31A C68A', 's⁻¹', '=', '4.06e-05'),
  ('C16G U55A C67U C71A', 's⁻¹', '=', '8.06e-05'),
  ('G7U U30A', 's⁻¹', '<', '1e-05'),
  ('C8U A12G C50U C68G', 's⁻¹', '=', 0.000476),
  ('A12G G40A A42C', 's⁻¹', '<', '1e-05'),
  ('A42C A52U A64G', 's⁻¹', '<', '1e-05'),
  ('G37C A48U U57G', 's⁻¹', '<', '1e-05'),
  ('A36U G43U U65A', 's⁻¹', '<', '1e-05'),
  ('U31C U57A', 's⁻¹', '=', '2.32e-05'),
  ('G13U A14G A36G U55A', 's⁻¹', '<', '1e-05'),
  ('G51C A53U', 's⁻¹', '<', '1e-05'),
  ('C10G U46G', 's⁻¹', '<', '1e-05'),
  ('C11U A48C G62U', 's⁻¹', '<', '1e-05'),
  ('A15C U55G', 's⁻¹', '=', 0.00118),
  ('G32U G40C', 's⁻¹', '=', '7.79e-05'),
  ('U30C C50G G63C', 's⁻¹', '=', 0.00014),
  ('A14U U45A C71G', 's⁻¹', '=', 0.000196),
  ('A6G C11G U47A', 's⁻¹', '<', '1e-05'),
  ('G13U G60U C68A C71A', 's⁻¹', '<', '1e-05'),
  ('C34A G37A A48U', 's⁻¹', '<', '1e-05'),
  ('G13U A39G C71A', 's⁻¹', '=', 0.000144),
  ('A14G A53U C71G', 's⁻¹', '=', 0.00038),
  ('C11A C50G C61A', 's⁻¹', '=', 0.000188),
  ('A15C A36G', 's⁻¹', '<', '1e-05'),
  ('A15C G51A C70G', 's⁻¹', '=', '6.1e-05'),
  ('A33U A48C G63A', 's⁻¹', '<', '1e-05'),
  ('C11G A14G G41A G43C', 's⁻¹', '<', '1e-05'),
  ('A36G G60U G63A C68A', 's⁻¹', '<', '1e-05'),
  ('C16U G44A', 's⁻¹', '=', 0.000392),
  ('G38A U45C', 's⁻¹', '<', '1e-05'),
  ('C8G A39C C58U', 's⁻¹', '<', '1e-05'),
  ('C11G A15C U45C C68G', 's⁻¹', '<', '1e-05'),
  ('A33U G59U', 's⁻¹', '<', '1e-05'),
  ('U47C A64U', 's⁻¹', '=', '9.46e-05'),
  ('U45C U65C G66U C68G', 's⁻¹', '<', '1e-05'),
  ('G13C U56G', 's⁻¹', '=', '5.37e-05'),
  ('A12U U57A', 's⁻¹', '=', 0.000287),
  ('A6C A39G G51C', 's⁻¹', '<', '1e-05'),
  ('U49G U54G C67A', 's⁻¹', '=', 0.000269),
  ('G44A U69G', 's⁻¹', '<', '1e-05'),
  ('C11U A12C G32U', 's⁻¹', '<', '1e-05'),
  ('A39U U49A U56G', 's⁻¹', '<', '1e-05'),
  ('C11A U56C', 's⁻¹', '=', '4.6e-05'),
  ('C10A A15C A42C', 's⁻¹', '<', '1e-05'),
  ('C8G C34A A53C G60C', 's⁻¹', '<', '1e-05');
